// merged dataset of IC50 values, system = UniProtKB P12931, multiple refs

Known IC50 results, listed for orientation:
Cn1cc(-c2cnc3[nH]cc(C(=O)c4cc(NS(=O)(=O)C5CCCCC5)ccc4F)c3c2)cn1 ≤ 10 µM
COc1cc(Nc2ncnc(-n3c(NCc4ccc(C)cc4)nc4ccccc43)n2)cc(OC)c1OC > 9.04 µM
C=CC(=O)N1CC[C@@H](N2CC(C#Cc3c(-c4ccc(C5CC5)cc4)c4c(N)ncnc4n3C)C2)[C@@H](O)C1 0.01 to 1 µM

// IC50 lookup, key: CN(C)S(=O)(=O)Nc1ccc(F)c(C(=O)c2c[nH]c3nccc(Cl)c23)c1F
≤ 10 µM

* * *

Let's look at some IC50 data for Proto-oncogene tyrosine-protein kinase Src (Homo sapiens) that I collected from the literature.

COc1cc(Nc2ncnc(Nc3ccc(C)cc3F)n2)cc(OC)c1OC 1.04 to 6.23 µM
COC(=O)c1cc2cc(NCc3ccccc3OC)cnc2[nH]1 0.1 to 10 µM
N#Cc1ccc(-n2cnc3cc(OCCOCCO)c(NC4CCOCC4)nc32)nc1 > 1.33 µM

Request the reported IC50 associated with CC(C)(C)OC(=O)N1CCN(c2ccc(Nc3ncc4ncc(=O)n(C5CCCC5)c4n3)cc2)CC1
> 50 µM

Query: IC50; subject: COc1cnc2[nH]cc(C(=O)c3c(F)ccc(NS(=O)(=O)C4CCCCC4)c3F)c2c1
≤ 10 µM

* * *

pIC50: −log10 of the molar value.
Literature pIC50 values, system: Proto-oncogene tyrosine-protein kinase Src (Homo sapiens).

Observe how each entry below is paired with its result.
CCCS(=O)(=O)Nc1ccc(F)c(C(=O)c2c[nH]c3ncc(-c4ccnc(F)c4)cc23)c1F ≥ 5.00
COc1cc(Nc2cc(Oc3ccc(NC(=O)Nc4cc(C(C)C)nn4-c4cccc(CP(C)(C)=O)c4)c4ccccc34)ccn2)cc(OCCN2CCOCC2)c1 8.10

Give its pIC50 value. Item: COCCOCCOCCOc1cc(Nc2cc(Oc3ccc(NC(=O)Nc4cc(C(C)(C)C)cc(NS(C)(=O)=O)c4OC)c4ccccc34)ccn2)cc(OC)c1
7.68

Entry O=C(c1c(F)ccc(NS(=O)(=O)c2ccc(C(F)(F)F)nc2)c1F)c1c[nH]c2ncc(Cl)cc12 : reported pIC50 = ?
≥ 5.00

Need pIC50 of CC(C)CS(=O)(=O)Nc1ccc(F)c(C(=O)c2c[nH]c3ncc(-c4cnn(C)c4)cc23)c1F , thanks.
≥ 5.00

Could you tell me which pIC50 is on file for COc1cc(Nc2ncnc(-n3c(NCCc4ccccc4)nc4ccccc43)n2)cc(OC)c1OC ?
< 5.04

* * *

The entries below pair molecules with IC50 values for UniProt:P12931, as found in several publications.

// below: answered molecules
COCCOCCOCCOc1cc(Nc2nccc(Oc3ccc(NC(=O)Nc4cc(C(C)(C)C)cc(C(N)=O)c4OC)c4ccccc34)n2)cc(OC)c1 6 nM
NC(=O)c1ccc(-c2cnc3[nH]cc(C(=O)c4cccc(O)c4)c3c2)cc1 ≤ 10000 nM
COc1c(NC(=O)Nc2ccc(Oc3ccnc(Nc4ccc(C(=O)NCCN5CCOCC5)c(N(C)C)c4)c3)c3ccccc23)cc(C(C)(C)C)cc1NS(C)(=O)=O 16 nM

Checklist item: IC50 tested on UniProt:P12931, entry COc1cc(Nc2cc(Oc3ccc(NC(=O)Nc4cc(C(C)(C)C)cc(NS(C)(=O)=O)c4OC)c4ccccc34)ccn2)ccc1C(=O)NCCOCCOCCOP(=O)(O)O , value?
22 nM

Please provide the recorded IC50 for COc1cc(Nc2nc3c(-c4ccc(C(C)(C)C#N)cc4)nccn3n2)cc(OC)c1 , tested on UniProt:P12931.
300 to 3000 nM
